# targetOrTestSystem: OATP1B1 (Homo sapiens)
# Construct: expressed in transfected cells; host or cells: A431 cells
# Sequence (Q9Y6L6 1-691): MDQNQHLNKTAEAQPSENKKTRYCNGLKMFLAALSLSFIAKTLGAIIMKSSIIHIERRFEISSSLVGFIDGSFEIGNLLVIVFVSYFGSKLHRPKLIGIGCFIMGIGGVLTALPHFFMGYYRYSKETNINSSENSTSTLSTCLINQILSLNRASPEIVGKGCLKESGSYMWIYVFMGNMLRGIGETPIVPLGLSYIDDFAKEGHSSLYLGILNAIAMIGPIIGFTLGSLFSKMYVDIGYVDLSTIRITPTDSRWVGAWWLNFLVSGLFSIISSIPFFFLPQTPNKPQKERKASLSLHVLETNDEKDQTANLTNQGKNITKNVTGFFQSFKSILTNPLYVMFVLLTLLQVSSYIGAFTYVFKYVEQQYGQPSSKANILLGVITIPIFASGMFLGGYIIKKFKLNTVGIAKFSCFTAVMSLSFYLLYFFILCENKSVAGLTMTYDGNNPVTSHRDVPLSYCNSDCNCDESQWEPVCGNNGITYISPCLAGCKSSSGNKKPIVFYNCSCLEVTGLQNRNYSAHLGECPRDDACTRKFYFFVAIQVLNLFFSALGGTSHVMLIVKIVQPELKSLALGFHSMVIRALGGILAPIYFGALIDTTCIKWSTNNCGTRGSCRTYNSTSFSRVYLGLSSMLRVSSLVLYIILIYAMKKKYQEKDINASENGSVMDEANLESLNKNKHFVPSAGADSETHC
# testDetails: Pyranine transport inhibition in A431 cells overexpressing OATP1B1
# Format: cell-based
# measurementContext: full dose-response curve, eight concentrations, Hill1 fit; read-out: IC50 (μM) OATP1B1
endpoint: IC50 (µM)

(a) Cn1c(=O)[nH]c(=O)c2c1nc(N/N=C1/C(=O)Nc3ccccc31)n2CCCc1ccccc1
(b) O=C(NCc1cn(Cc2ccccc2)nc1-c1ccccc1)c1cc(F)cc(F)c1
Task: I need your help: which of the pair a , b has higher IC50? Write down the label of the entry you select.
Result: b
(b: 7.61 µM, a: 2.69 µM)

This collection of values is drawn from paper PMC9795544.
